Quick reference: melting point of the listed items.

[[record]]
compound = "C#Cc1ccc(NS(=O)(=O)N[C@@H](C)C(=O)O)cc1"
recorded_endpoint = "melting point"
recorded_result = "163 to 165 °C"

[[record]]
compound = "C#Cc1ccc(N=S(=O)(Oc2ccccc2O)N2CCCCC2)cc1 (stereo not shown)"
recorded_endpoint = "melting point"
recorded_result = "93 °C"

[[record]]
compound = "C#Cc1ccc(N=S(=O)(F)Oc2ccc(-c3ccccc3)cc2)cc1 (stereo not shown)"
recorded_endpoint = "melting point"
recorded_result = "94 to 95 °C"

[[record]]
compound = "C#Cc1ccc(N=S(=O)(Oc2ccc(-c3ccccc3)cc2)Oc2ccc(-c3ccccc3)cc2)cc1"
recorded_endpoint = "melting point"
recorded_result = "129 °C"

[[record]]
compound = "C#Cc1ccc(N=S2(=O)Oc3ccccc3-c3ccccc3O2)cc1"
recorded_endpoint = "melting point"
recorded_result = "138 to 139 °C"

[[record]]
compound = "O=C1[C@@H]([C@H](c2ccccc2)N2CCN(c3ccc(F)cc3)CC2)N=S(=O)(F)N1C1CCCCC1 (stereo partly shown)"
recorded_endpoint = "melting point"
recorded_result = "139 to 140 °C"


melting point recorded for this compound, C#Cc1ccc(N=S(=O)(Oc2ccccc2O)N2CCN(C(=O)OC(C)(C)C)CC2)cc1 (stereo not shown) , is 139 to 141 °C

melting point recorded for this compound, `C#Cc1ccc(NS(=O)(=O)NCC(=O)O)cc1` , is 113 to 115 °C

melting point recorded for this compound, C#Cc1ccc(N=S(=O)(F)N2CCC(=O)CC2)cc1 (stereo not shown) , is 70 °C

melting point recorded for this compound, C#CCOC[C@H]1O[C@@H](n2cc(C)c(=O)[nH]c2=O)C[C@@H]1N=S(=O)(F)Oc1ccc2c(c1)CC[C@H]1C3CCC(=O)[C@@]3(C)CC[C@H]21 (stereo partly shown) , is 94 to 95 °C

melting point recorded for this compound, C#CCOC[C@H]1O[C@@H](n2cc(C)c(=O)[nH]c2=O)C[C@@H]1N=S(=O)(F)N1CCC1 (stereo partly shown) , is 105 to 106 °C

melting point recorded for this compound, `C#Cc1ccc(N=S2(=O)Oc3ccccc3O2)cc1` , is 97 to 98 °C

melting point recorded for this compound, `C#Cc1ccc(N=S2(=O)Oc3c(C)ccc(C)c3O2)cc1` , is 101 °C

These data points were gathered from patent US11254702B2.
